EXPERIMENTAL ENDPOINT: melting point

These recorded examples may help you get a feel for the data.
1) COCOCc1cccc(-c2ccc(C(=O)OC)cc2)c1 54 to 55 °C
2) O=C(O)CNC(=O)c1cc(Br)nc(Br)c1 151 to 152 °C

INPUT: # get_value(readout='melting point', item= COC(=O)C(=O)Nc1ccc(Cl)cc1 )
OUTPUT: 162 to 164 °C

###

EXPERIMENTAL ENDPOINT: melting point

These recorded examples may help you get a feel for the data.
1. CCCCOC(=O)c1cc(Oc2ccc3c(C(=O)Nc4cccc(C(F)(F)F)c4)cccc3c2)ccn1 128 to 130 °C
2. O=c1c(Cc2cccnc2)cc2cccnc2n1-c1cccc([N+](=O)[O-])c1 226 to 227 °C

INPUT: # get_value(readout='melting point', item= O=C(c1cc(C(F)(F)F)cc(C(F)(F)F)c1)N1CCOc2nccc(-c3ccccc3)c2C1 )
OUTPUT: 179 to 180 °C

###

EXPERIMENTAL ENDPOINT: melting point

These recorded examples may help you get a feel for the data.
COMPOUND	melting point
Clc1c(OCC2CO2)cccc1N1CCCCC1 (stereo unspecified)	55 to 57 °C
CC(=O)Oc1ccc2c(c1)Sc1cc(N(C)C)ccc1N2C(C)=O	124 to 128 °C
NC1C=CC=CN1NS(=O)n1ccnc1 (stereo unspecified)	174 to 175 °C
NS(=O)(=O)c1cc2c(=O)[nH]ccc2s1	300 to 301 °C
CC(=O)Nc1ccc2c3c1c(=O)c(C(=O)O)cn3CCC2	> 300 °C
CCOC(=O)C=Cc1ccc(NC(=O)CC)cc1	138 °C
CCCCCCCCCCC1COC(=O)N1C(C)=O (stereo unspecified)	51 to 53 °C
CC(C)(C)c1cc(Cl)ccc1N1CCN(C(=O)C(=O)O)CC1	154 to 155 °C
O=C(NCCO)c1nc2ccccc2[nH]1	194 to 195 °C
COc1ccc(C(=O)Nc2cccnc2)cc1NCc1cccs1	154 to 155 °C

INPUT: # get_value(readout='melting point', item= COC(=O)c1ccc2oc3c(c(=O)c2c1)CCC3=Cc1ccccn1 )
OUTPUT: 250 to 252 °C

INPUT: Record: COc1ccc(C(=O)CCCCCBr)cc1
OUTPUT: 40 to 41 °C

INPUT: Record: COc1ccc(-c2cccc(C#N)n2)cc1
OUTPUT: 86.3 to 86.6 °C

INPUT: Record: CCN(CC)CCCNC(=O)C1=C(O)c2ccccc2S(=O)(=O)N1C
OUTPUT: 107 to 110 °C

INPUT: Record: CC(=O)C1=C(O)C(=C(C)Nc2ccccc2N)C(=O)OC1=O
OUTPUT: 179 to 181 °C

INPUT: Record: CCC(=Cc1ccc(N(C)C)cc1Cl)[N+](=O)[O-]
OUTPUT: 90 to 91 °C

INPUT: Record: CC(=O)OC1CC2=CCC3C4CCC(C(C)CBr)C4(C)CCC3C2(C)C(OC(C)=O)C1 (stereo unspecified)
OUTPUT: 75 to 76 °C

INPUT: Record: CS(=O)(=O)Oc1ccc(Oc2ccccc2)cc1CC(=O)O
OUTPUT: 121 °C

###

Entries and their measured melting point follow.

These recorded examples may help you get a feel for the data.
MOLECULE	REPORTED MEASUREMENT
Fc1ccc(Cn2c(NC3CCN(CCCCNc4nc5cnccc5[nH]4)CC3)nc3ccccc32)cc1	228 °C
C1=CCC23C=CC=CN2c2nccn2C3=C1 (stereo unspecified)	258 to 260 °C
CCOC(=O)C1=C(COCCn2c(C)nc3ccccc32)NC(C)=C(C(=O)NC(C)(C)C)C1c1ccccc1Cl (stereo unspecified)	157 to 161 °C
OC(CCc1ccc2ccccc2c1)c1cnc2sc3c(n12)CCCCC3 (stereo unspecified)	124 to 127 °C
Cc1ccccc1-c1cc(C(C)(C)C)c(O)c(C(C)(C)C)c1	85.5 to 87.5 °C

INPUT: # get_value(readout='melting point', item= O=c1[nH]c2cc(I)ccc2n(CP(=O)(O)O)c1=O )
OUTPUT: 295 to 297 °C
